# System: HeLa
# assay_info: MALAT1 nuclear FISH intensity, robust Z-score vs DMSO; higher = more nuclear MALAT1 lncRNA, active = -3 or less
# measurement_parameters: 10 µM; 6 h
Structures can show the parent of a compound that is named as a salt.
// F strictly below 0.06 in MALAT1 nuclear FISH intensity; T otherwise

{"compound": "O=C(O)C(=O)O.[NH-][C@@H]1CCCC[C@H]1[NH-].[Pt+2] [Oxaliplatin]", "assigned_class": "F"}
{"compound": "CCCc1c(OCCCCc2nnn[nH]2)ccc(C(C)=O)c1O", "assigned_class": "T"}
{"compound": "Cc1[nH]c(=O)c(C#N)cc1-c1ccncc1 [Milrinone]", "assigned_class": "F"}
{"compound": "CO[C@H]1C[C@@H]2CC[C@@H](C)[C@@](O)(O2)C(=O)C(=O)N2CCCC[C@H]2C(=O)O[C@H]([C@H](C)C[C@@H]2CC[C@@H](O)[C@H](OC)C2)CC(=O)[C@H](C)/C=C(\\C)[C@@H](O)[C@@H](OC)C(=O)[C@H](C)C[C@H](C)/C=C/C=C/C=C/1C [Rapamycin]", "assigned_class": "T"}
{"compound": "CN(N=O)C(=O)N[C@@H](C=O)[C@@H](O)[C@H](O)[C@H](O)CO [Streptozocin]", "assigned_class": "F"}
{"compound": "C[C@H](N)[C@H](O)c1cccc(O)c1 [Metaraminol Bitartrate]", "assigned_class": "T"}
{"compound": "CO[C@H]1C[C@@H]2CC[C@@H](C)[C@@](O)(O2)C(=O)C(=O)N2CCCC[C@H]2C(=O)O[C@H]([C@H](C)C[C@@H]2CC[C@@H](O)[C@H](OC)C2)CC(=O)[C@H](C)/C=C(\\C)[C@@H](O)[C@@H](OC)C(=O)[C@H](C)C[C@H](C)/C=C/C=C/C=C/1C [Sirolimus (Rapamycin)]", "assigned_class": "T"}
{"compound": "C[N+](C)(C)CCOC(N)=O [Carbachol (Carbamylcholine ) Chloride]", "assigned_class": "F"}
{"compound": "O=C(NCCN1CCC(n2c(=O)[nH]c3cc(Cl)ccc32)CC1)c1ccc(F)cc1 [Halopemide]", "assigned_class": "F"}
{"compound": "C[C@@H](O)[C@H]1C(=O)N2C(C(=O)O)=C(S[C@@H]3CN[C@H](C(=O)N(C)C)C3)[C@H](C)[C@H]12 [Meropenem]", "assigned_class": "F"}
{"compound": "O=C(O)c1cc(-c2ccccc2)nc2ccccc12 [Cincophen]", "assigned_class": "F"}
{"compound": "N=C(NCCCCCCNC(=N)NC(=N)Nc1ccc(Cl)cc1)NC(=N)Nc1ccc(Cl)cc1 [Chlorhexidine Dihydrochloride]", "assigned_class": "T"}
{"compound": "CCCCC(=O)N(Cc1ccc(-c2ccccc2-c2nnn[nH]2)cc1)[C@H](C(=O)O)C(C)C [Valsartan]", "assigned_class": "F"}
{"compound": "CCOC(=O)C1=C[C@@H](OC(CC)CC)[C@H](NC(C)=O)[C@@H](N)C1 [Oseltamivir Phosphate]", "assigned_class": "F"}

* * *

# System: HeLa
# assay_info: MALAT1 nuclear FISH intensity, robust Z-score vs DMSO; higher = more nuclear MALAT1 lncRNA, active = -3 or less
# measurement_parameters: 10 µM; 6 h
Structures can show the parent of a compound that is named as a salt.
MALAT1 nuclear FISH intensity overview

{"molecule": "O=NN(CCCl)C(=O)NC1CCCCC1", "MALAT1 nuclear FISH intensity": -0.711}
{"molecule": "CN(C)CCC=C1c2ccccc2COc2ccccc21", "MALAT1 nuclear FISH intensity": 1.36}
{"molecule": "CN(C)CCOc1ccc(/C(=C(/CCCl)c2ccccc2)c2ccccc2)cc1 [Toremifene citrate salt]", "MALAT1 nuclear FISH intensity": -0.629}
{"molecule": "Cc1cccc(Nc2cc(Cl)nc(SCC(=O)O)n2)c1C", "MALAT1 nuclear FISH intensity": -1.25}
{"molecule": "COc1cc(NC(C)CCCN)c2ncccc2c1 (stereo not given) [Primaquine bisphosphate]", "MALAT1 nuclear FISH intensity": -1.83}
{"molecule": "Oc1c(Cl)cc(Cl)c(Cl)c1Cc1c(O)c(Cl)cc(Cl)c1Cl", "MALAT1 nuclear FISH intensity": 0.867}
{"molecule": "O=C1NC(=O)C(c2ccccc2[N+](=O)[O-])=C1Nc1ccc(O)c(Cl)c1", "MALAT1 nuclear FISH intensity": -1.18}
{"molecule": "OCc1cc(C(O)CNCCCCCCOCCCCc2ccccc2)ccc1O (stereo not given)", "MALAT1 nuclear FISH intensity": -0.00989}
{"molecule": "NC12CC3CC(CC(C3)C1)C2", "MALAT1 nuclear FISH intensity": 0.694}
{"molecule": "CCCC[C@@H](C=O)NC(=O)[C@H](CC(C)C)NC(=O)[C@H](CC(C)C)NC(C)=O [Calpain Inhibitor I]", "MALAT1 nuclear FISH intensity": 4.21}
{"molecule": "CCOc1cc(CC(=O)N[C@@H](CC(C)C)c2ccccc2N2CCCCC2)ccc1C(=O)O [Repaglinide]", "MALAT1 nuclear FISH intensity": -0.349}
{"molecule": "CC/C=C\\C/C=C\\C/C=C\\CCCCCCCC(=O)O", "MALAT1 nuclear FISH intensity": 0.533}
{"molecule": "C#C[C@]1(O)CC[C@H]2[C@@H]3CCC4=CC(=O)CC[C@@H]4[C@H]3CC[C@@]21CC", "MALAT1 nuclear FISH intensity": 0.256}
{"molecule": "CC(C(=O)O)c1ccc(-c2ccccc2)c(F)c1 (stereo not given)", "MALAT1 nuclear FISH intensity": 0.0689}
{"molecule": "CCN(CC)CCNC(=O)c1ccc(N)cc1 [Procainamide]", "MALAT1 nuclear FISH intensity": 0.718}
{"molecule": "O=C(O)CCCc1ccccc1 [Sodium Phenylbutyrate]", "MALAT1 nuclear FISH intensity": 1.1}
{"molecule": "Cc1ccc(S(=O)(=O)N[C@@H](Cc2ccccc2)C(=O)CCl)cc1", "MALAT1 nuclear FISH intensity": 2.74}
{"molecule": "Cc1[nH]cnc1CN1CCc2c(c3ccccc3n2C)C1=O", "MALAT1 nuclear FISH intensity": -1.58}
{"molecule": "CN(C)c1ccc(/C=C2/C(=O)Nc3ccccc32)cc1", "MALAT1 nuclear FISH intensity": -0.65}
{"molecule": "Nc1ccn([C@H]2CC[C@@H](CO)O2)c(=O)n1 [Zalcitabine (2',3'-Dideoxycytidine)]", "MALAT1 nuclear FISH intensity": 0.465}

* * *

# Test system: HeLa;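 note: High-content confocal imaging of branched-DNA amplified FISH in 384-well plates, Hoechst-defined nuclei, score is well value minus plate DMSO median over DMSO robust SD, four wells per compound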
# assay_info: MALAT1 nuclear FISH intensity, robust Z-score vs DMSO; higher = more nuclear MALAT1 lncRNA, active = -3 or less
# measurement_parameters: 10 µM; 6 h
Counter-ions that a name gives are not always drawn.
Returns one of yes (1) or no (0); yes (1) when MALAT1 nuclear FISH intensity is >= -0.3.

{"compound": "NS(=O)(=O)c1cc2c(cc1Cl)NCNS2(=O)=O [Hydrochlorothiazide]", "assigned_class": "no (0)"}
{"compound": "CC1=NN(c2ccccc2)C(=O)C1", "assigned_class": "no (0)"}
{"compound": "CC/C(=C(\\c1ccccc1)c1ccc(OCCN(C)C)cc1)c1ccccc1 [Tamoxifen]", "assigned_class": "yes (1)"}
{"compound": "CCCCCC(O)c1cccc(OCc2ccc3ccccc3n2)c1 (stereo not drawn)", "assigned_class": "yes (1)"}
{"compound": "O=C(O)CCC/C=C\\C[C@@H]1[C@@H](/C=C/[C@H](O)C2Cc3ccccc3C2)[C@@H](F)C[C@@H]1O", "assigned_class": "no (0)"}
{"compound": "CO[C@H]1/C=C/O[C@@]2(C)Oc3c(C)c(O)c4c(O)c(c5c(nc6cc(C)ccn65)c4c3C2=O)NC(=O)/C(C)=C\\C=C\\[C@H](C)[C@H](O)[C@@H](C)[C@@H](O)[C@@H](C)[C@H](OC(C)=O)[C@@H]1C", "assigned_class": "no (0)"}
{"compound": "CCCN1CCCC[C@H]1C(=O)Nc1c(C)cccc1C", "assigned_class": "no (0)"}
{"compound": "CN(C)CCC[C@@]1(c2ccc(F)cc2)OCc2cc(C#N)ccc21", "assigned_class": "yes (1)"}
{"compound": "CN(C)CCOC(=O)C(c1ccccc1)C1(O)CCCC1 (stereo not drawn) [Cyclopentolate]", "assigned_class": "no (0)"}
{"compound": "CCCCCCNC(=O)n1cc(F)c(=O)[nH]c1=O", "assigned_class": "no (0)"}
{"compound": "N=C(N)NC(=N)NCCc1ccccc1", "assigned_class": "no (0)"}
{"compound": "Cc1cn([C@H]2C=C[C@@H](CO)O2)c(=O)[nH]c1=O", "assigned_class": "yes (1)"}
{"compound": "O=c1[nH]cc(F)c(=O)[nH]1", "assigned_class": "yes (1)"}
{"compound": "CCCCC/C=C\\C/C=C\\C/C=C\\C/C=C\\CCCC(=O)O[C@H](COCCCCCCCCCCCCCCCC)COP(=O)([O-])OCC[N+](C)(C)C", "assigned_class": "yes (1)"}
{"compound": "CC(C)COCC(CN(Cc1ccccc1)c1ccccc1)N1CCCC1 (stereo not drawn)", "assigned_class": "no (0)"}
{"compound": "Nc1nc(NC2CC2)c2ncn([C@H]3C=C[C@@H](CO)C3)c2n1 [Abacavir Sulfate]", "assigned_class": "yes (1)"}
{"compound": "CN1CC(=O)N2[C@H](c3ccc4c(c3)OCO4)c3[nH]c4ccccc4c3C[C@@H]2C1=O", "assigned_class": "no (0)"}
{"compound": "CCN(CC)CC#CCOC(=O)C(O)(c1ccccc1)C1CCCCC1 (stereo not drawn) [Oxybutynin Chloride]", "assigned_class": "no (0)"}
